Test system: MCF7 breast
protocol.text: NCI-60 one-dose screen, 48 h (100 = growth as untreated, 0 = no growth, -100 = all killed)
experimental.context: 10 µM unless noted
The panel holds about 83,000 compounds, 20% with a hit somewhere; the sample as a whole holds those more often.
Everything with growth lower than -50% is 0 (no); everything else, including exactly -50%, is 1 (yes).

Example entries begin here.
molecule	class.assignment
C=CC(=O)N1CCN(c2ccc3nc4c(nc3c2C(F)(F)F)C(=O)c2ncccc2C4=O)CC1	0 (no)
COc1ccc(/C=C/c2nc3ccccc3n3c(-c4cccc([N+](=O)[O-])c4)nnc23)cc1	0 (no)
O=C(N/N=C/c1occc1Br)c1[nH]c2ccc(Br)cc2c1-c1ccccc1	0 (no)
CN(C)CCCNC(=S)Nc1ccc(/C=C/c2ccc(Cl)cc2)cc1	1 (yes)

Hi, just wondering whether `CC[C@]12C=CCN3CC[C@@]4(c5ccc(OC)cc5N(C)[C@H]4[C@@](O)(C(=O)OC)[C@@H]1OC(=O)CCCC[P+](c1ccc(F)cc1)(c1ccc(F)cc1)c1ccc(F)cc1)[C@@H]32` shows growth of -50% or higher. 1 (yes)

Does the molecule NS(=O)(=O)c1ccc(N2N=C(c3ccc(NC(=O)Nc4ccccc4)cc3)CC2c2ccc(Br)cc2)cc1 (stereo not drawn) have recorded growth that is -50% or more? 0 (no)

In plain terms: is recorded growth at least -50% for COc1cc(C2CC(c3ccc(F)cc3)=Nc3c(N)nc(N)nc3N2)ccc1Oc1nc(Nc2ccc(F)cc2)nc(N(C)C)n1 (stereo not drawn) ? 1 (yes)

API: above_or_equal(metric=growth, cutoff=-50%) for item `CCCSc1nnc(-c2sc3nc4ccccc4n3c2C)o1` 1 (yes)
